testedTarget: WIZ (Homo sapiens, UniProt O95785+Q96SW2)
Construct: expressed in transfected cells
Sequence (O95785 whole entry): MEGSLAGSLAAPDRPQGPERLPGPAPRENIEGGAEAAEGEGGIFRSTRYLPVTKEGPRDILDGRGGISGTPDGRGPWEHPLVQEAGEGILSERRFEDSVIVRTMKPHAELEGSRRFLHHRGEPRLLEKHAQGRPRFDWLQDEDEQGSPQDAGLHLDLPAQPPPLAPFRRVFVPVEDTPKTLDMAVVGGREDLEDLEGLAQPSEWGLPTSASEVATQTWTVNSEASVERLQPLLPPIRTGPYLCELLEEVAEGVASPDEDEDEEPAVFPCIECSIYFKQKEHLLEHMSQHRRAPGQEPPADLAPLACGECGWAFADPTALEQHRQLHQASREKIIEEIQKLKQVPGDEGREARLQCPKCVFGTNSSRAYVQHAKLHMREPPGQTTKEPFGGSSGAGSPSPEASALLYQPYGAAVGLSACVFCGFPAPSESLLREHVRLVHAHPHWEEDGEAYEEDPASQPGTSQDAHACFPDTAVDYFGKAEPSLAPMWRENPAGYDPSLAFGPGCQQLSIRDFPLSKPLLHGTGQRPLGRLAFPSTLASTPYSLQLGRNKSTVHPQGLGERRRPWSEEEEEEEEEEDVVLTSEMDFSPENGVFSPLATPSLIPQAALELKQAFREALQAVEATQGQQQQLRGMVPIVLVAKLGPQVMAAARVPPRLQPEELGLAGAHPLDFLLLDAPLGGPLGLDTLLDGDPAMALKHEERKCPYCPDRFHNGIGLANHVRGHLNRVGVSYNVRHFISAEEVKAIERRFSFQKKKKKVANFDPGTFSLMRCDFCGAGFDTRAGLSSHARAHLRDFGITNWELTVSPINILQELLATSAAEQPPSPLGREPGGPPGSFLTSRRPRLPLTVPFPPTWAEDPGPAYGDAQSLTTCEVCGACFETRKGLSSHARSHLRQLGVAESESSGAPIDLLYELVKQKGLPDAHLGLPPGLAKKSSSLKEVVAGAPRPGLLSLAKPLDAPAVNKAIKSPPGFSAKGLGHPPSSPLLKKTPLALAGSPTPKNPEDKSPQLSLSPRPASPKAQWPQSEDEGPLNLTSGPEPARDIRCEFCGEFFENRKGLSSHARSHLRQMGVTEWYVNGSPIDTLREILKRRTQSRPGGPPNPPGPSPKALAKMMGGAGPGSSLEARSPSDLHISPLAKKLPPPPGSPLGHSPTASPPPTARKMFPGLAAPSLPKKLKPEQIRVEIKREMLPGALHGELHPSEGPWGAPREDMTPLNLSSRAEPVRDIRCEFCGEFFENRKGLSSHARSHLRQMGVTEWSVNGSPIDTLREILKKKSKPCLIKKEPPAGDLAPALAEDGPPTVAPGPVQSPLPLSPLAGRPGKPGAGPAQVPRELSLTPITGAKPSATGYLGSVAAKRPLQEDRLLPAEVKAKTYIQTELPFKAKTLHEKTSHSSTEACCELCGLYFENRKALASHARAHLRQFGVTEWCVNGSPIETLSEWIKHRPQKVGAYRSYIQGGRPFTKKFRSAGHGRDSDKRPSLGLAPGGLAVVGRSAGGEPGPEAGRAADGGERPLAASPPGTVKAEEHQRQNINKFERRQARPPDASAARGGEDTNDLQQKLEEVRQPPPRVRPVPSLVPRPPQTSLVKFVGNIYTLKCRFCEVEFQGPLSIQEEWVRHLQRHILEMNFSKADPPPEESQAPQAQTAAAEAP
Sequence (Q96SW2 whole entry): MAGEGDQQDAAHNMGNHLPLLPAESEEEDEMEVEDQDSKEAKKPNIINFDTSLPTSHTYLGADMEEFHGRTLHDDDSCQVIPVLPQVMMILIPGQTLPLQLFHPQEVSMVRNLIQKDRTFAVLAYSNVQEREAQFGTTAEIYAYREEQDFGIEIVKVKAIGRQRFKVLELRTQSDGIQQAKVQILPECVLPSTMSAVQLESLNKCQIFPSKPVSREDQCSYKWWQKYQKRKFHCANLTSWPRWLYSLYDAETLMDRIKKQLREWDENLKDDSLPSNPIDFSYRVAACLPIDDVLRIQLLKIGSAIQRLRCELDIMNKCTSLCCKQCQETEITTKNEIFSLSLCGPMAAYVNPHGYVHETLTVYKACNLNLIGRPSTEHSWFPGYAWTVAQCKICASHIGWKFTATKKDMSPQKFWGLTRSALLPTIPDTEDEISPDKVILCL
Sequence (Q16531 whole entry partner): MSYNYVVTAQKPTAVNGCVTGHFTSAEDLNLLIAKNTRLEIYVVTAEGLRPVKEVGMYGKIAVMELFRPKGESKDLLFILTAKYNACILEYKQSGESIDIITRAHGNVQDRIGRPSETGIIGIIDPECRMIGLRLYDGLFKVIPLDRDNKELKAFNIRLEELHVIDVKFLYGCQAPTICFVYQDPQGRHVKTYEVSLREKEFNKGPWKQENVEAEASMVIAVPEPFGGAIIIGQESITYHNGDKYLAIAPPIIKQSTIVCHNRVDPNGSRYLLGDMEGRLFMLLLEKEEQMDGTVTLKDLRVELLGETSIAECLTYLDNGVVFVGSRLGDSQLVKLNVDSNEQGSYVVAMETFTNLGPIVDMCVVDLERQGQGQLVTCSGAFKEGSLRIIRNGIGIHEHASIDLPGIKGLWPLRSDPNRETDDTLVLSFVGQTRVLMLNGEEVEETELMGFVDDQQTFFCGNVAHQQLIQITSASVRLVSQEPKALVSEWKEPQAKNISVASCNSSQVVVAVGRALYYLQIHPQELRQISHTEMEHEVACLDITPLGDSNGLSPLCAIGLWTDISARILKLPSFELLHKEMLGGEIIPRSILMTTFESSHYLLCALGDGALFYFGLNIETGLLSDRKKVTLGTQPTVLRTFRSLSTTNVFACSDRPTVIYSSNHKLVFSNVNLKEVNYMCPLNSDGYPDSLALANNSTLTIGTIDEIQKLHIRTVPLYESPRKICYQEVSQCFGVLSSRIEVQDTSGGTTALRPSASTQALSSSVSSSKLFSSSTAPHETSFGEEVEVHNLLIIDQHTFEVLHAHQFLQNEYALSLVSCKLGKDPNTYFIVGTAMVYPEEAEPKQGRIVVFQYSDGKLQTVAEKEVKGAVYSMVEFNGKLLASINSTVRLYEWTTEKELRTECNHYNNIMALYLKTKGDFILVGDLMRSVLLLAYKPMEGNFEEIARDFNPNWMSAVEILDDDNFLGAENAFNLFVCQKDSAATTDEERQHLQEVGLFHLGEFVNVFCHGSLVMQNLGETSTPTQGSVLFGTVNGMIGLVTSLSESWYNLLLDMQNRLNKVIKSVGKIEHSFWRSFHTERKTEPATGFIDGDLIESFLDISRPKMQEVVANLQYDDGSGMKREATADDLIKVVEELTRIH
test: Quantification of WIZ protein levels in HiBit tag fusion protein assay (293T cells)
Assay type: cell-based
conditionNotes: WIZ HiBit assay in 293T cells, about 18 hours, 10-point 5-fold dilution, top 25 μM; read-out: WIZ AC50
endpointName: DC50 (nM)
Expressed in nM, but write only the number.

Completed entries (count: 5):
molecule | DC50, nM
O=C1CCC(N2Cc3cc(O[C@@H]4CCCN(C5CC6(COC6)C5)C4)ccc3C2=O)C(=O)N1 (stereo partly shown) | 110
CCN1CCC[C@@H](Oc2ccc3c(c2)CN(C2CCC(=O)NC2=O)C3=O)[C@H]1C (mixture of isomers) | 60
CC[C@@H](C)N1CCC[C@@H](Oc2ccc3c(c2)CN(C2CCC(=O)NC2=O)C3=O)C1 (stereo partly shown) | 1.7
CCN1CCC[C@@H](Oc2ccc3c(c2)CN(C2CCC(=O)NC2=O)C3=O)C1 (mixture of isomers) | 16
CCN1C[C@H](C)C[C@@H](Oc2ccc3c(c2)CN(C2CCC(=O)NC2=O)C3=O)C1 (single isomer, unassigned) [Example 76-2] | 0.6

Q. Looking for the measured DC50 of O=C1CCC(N2Cc3cc(O[C@@H]4CCCN(C5CCCC5)C4)ccc3C2=O)C(=O)N1 (stereo partly shown) , can you help?
A. 3.6

Q. Need DC50, item CCO[C@@H]1C[C@@H](Oc2ccc3c(c2)CN(C2CCC(=O)NC2=O)C3=O)CN(CC(C)C)C1 (stereo partly shown)
A. 41.5
